test: modulators of MEP2-GFP levels in yeast, primary screen, S. cerevisiae, multiplex flow cytometry (AID 1867);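 note: median GFP channel fluorescence of barcode-gated MEP2-GFP cells measured by flow cytometry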; details: S. cerevisiae MEP2-GFP strain, 3 h, at 10 µM, hits give high values, 100% means same as DMSO wells
Inconclusive results are not listed.

- COMPOUND: "COc1ccc(-c2nc(C)c(C(C)=O)n2O)cc1OC"
  GFP response vs DMSO (%): 106
- COMPOUND: "COC(=O)c1cc(OC)c(OC)c(OC)c1[N+](=O)[O-]"
  GFP response vs DMSO (%): 97.9
- COMPOUND: "Nc1nc2ccc(OC(F)(F)F)cc2s1"
  GFP response vs DMSO (%): 99.9
- COMPOUND: "COc1ccc2oc(=O)c(C(=O)N3CCN(c4ccccc4)CC3)cc2c1"
  GFP response vs DMSO (%): 93.8
- COMPOUND: "COc1ccc2[nH]cc(CCNC(=O)C3CCCNC3=O)c2c1 (stereo unspecified)"
  GFP response vs DMSO (%): 97.9
- COMPOUND: "CC(C)c1ccccc1OCCNC(=S)NC(=O)c1cccnc1"
  GFP response vs DMSO (%): 97.4

---

Quick list: response per entry.
biological target: Beta-2 adrenergic receptor (Homo sapiens) (UniProt P07550); assay: beta2AR agonists driving receptor internalization, pilot screen, cell-based, FAP fluorogen, flow cytometry, validation set (AID 504459); conditions: Am2.2-beta2AR cells, FAP surface receptor flow cytometry; at 10 µM; hits give high values;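 note: agonist-driven loss of surface beta2AR via internalization measured by FAP dye flow cytometry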
Sequence (P07550 whole entry, looked up): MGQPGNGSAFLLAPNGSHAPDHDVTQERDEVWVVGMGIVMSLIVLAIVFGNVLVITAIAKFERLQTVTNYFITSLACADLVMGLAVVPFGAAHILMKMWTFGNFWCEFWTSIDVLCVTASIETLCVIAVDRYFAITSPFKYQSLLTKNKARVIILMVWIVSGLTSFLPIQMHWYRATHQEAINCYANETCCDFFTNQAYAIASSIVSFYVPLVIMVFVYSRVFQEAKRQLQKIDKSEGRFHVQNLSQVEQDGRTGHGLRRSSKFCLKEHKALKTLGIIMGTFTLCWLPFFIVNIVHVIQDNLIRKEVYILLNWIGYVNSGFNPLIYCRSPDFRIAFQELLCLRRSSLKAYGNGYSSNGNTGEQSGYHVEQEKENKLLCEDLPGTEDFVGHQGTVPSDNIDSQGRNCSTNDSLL
Activity calls are given as the source filed them.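 Rule for the calls: active = percent response above 42, roughly 3 SD of non-fluorescent test compounds; inactive = the rest.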

- COMPOUND: "CC1(C)CC(=O)C(C2(O)C(=O)Nc3ccccc32)CO1 (configuration not stated)"
  TARGET DESC: "Beta-2 adrenergic receptor (Homo sapiens) (UniProt P07550)"
  response: "7.56% (inactive)"
- COMPOUND: "Cc1[nH]c2ccccc2c1C(=O)CN1CCCC1"
  TARGET DESC: "Beta-2 adrenergic receptor (Homo sapiens) (UniProt P07550)"
  response: "7.28% (inactive)"
- COMPOUND: "COc1ccc(CC(=O)N2CC3(C)CC2CC(C)(C)C3)cc1OC (configuration not stated)"
  TARGET DESC: "Beta-2 adrenergic receptor (Homo sapiens) (UniProt P07550)"
  response: "-7.91% (inactive)"
- COMPOUND: "CN1CCN(CCCN2c3ccccc3Sc3ccc(C(F)(F)F)cc32)CC1"
  TARGET DESC: "Beta-2 adrenergic receptor (Homo sapiens) (UniProt P07550)"
  response: "23.7% (inactive)"
- COMPOUND: "C=C(C)c1nc2cc(OC)c(OC)cc2c(=O)o1"
  TARGET DESC: "Beta-2 adrenergic receptor (Homo sapiens) (UniProt P07550)"
  response: "-1.85% (inactive)"
- COMPOUND: "CC(C)COc1ccc(Cc2cnc(N)nc2N)cc1"
  TARGET DESC: "Beta-2 adrenergic receptor (Homo sapiens) (UniProt P07550)"
  response: "5.88% (inactive)"
- COMPOUND: "CCN(CC)CCN1C(=O)C(=O)/C(=C(/O)c2c(C)[nH]c(C(=O)OC)c2C)C1c1cccnc1 (configuration not stated)"
  TARGET DESC: "Beta-2 adrenergic receptor (Homo sapiens) (UniProt P07550)"
  response: "13.3% (inactive)"
- COMPOUND: "O=C(Nc1cccc(-c2nc3ncccc3o2)c1)c1ccccc1"
  TARGET DESC: "Beta-2 adrenergic receptor (Homo sapiens) (UniProt P07550)"
  response: "17.2% (inactive)"
- COMPOUND: "O=C(Nc1ccccc1)OCC1CCCN2CCCCC12 (configuration not stated)"
  TARGET DESC: "Beta-2 adrenergic receptor (Homo sapiens) (UniProt P07550)"
  response: "-23.8% (inactive)"
- COMPOUND: "CS(=O)(=O)Oc1ccc2c(c1)O/C(=C\\C=C\\c1ccccc1)C2=O"
  TARGET DESC: "Beta-2 adrenergic receptor (Homo sapiens) (UniProt P07550)"
  response: "26.6% (inactive)"
- COMPOUND: "Cc1cccc(N(C)C(=S)Oc2ccc3ccccc3c2)c1"
  TARGET DESC: "Beta-2 adrenergic receptor (Homo sapiens) (UniProt P07550)"
  response: "11.2% (inactive)"
- COMPOUND: "CC1(C)C2CCC1(C(=O)O)c1nc3ccccc3nc12 (configuration not stated)"
  TARGET DESC: "Beta-2 adrenergic receptor (Homo sapiens) (UniProt P07550)"
  response: "-10.7% (inactive)"
- COMPOUND: "CC(=O)N(CCC1(C(C)C)CCOC(C)(C)C1)Cc1ccco1 (configuration not stated)"
  TARGET DESC: "Beta-2 adrenergic receptor (Homo sapiens) (UniProt P07550)"
  response: "3.66% (inactive)"
- COMPOUND: "O=C(C1CCCCC1)N1CC(=O)N2CCc3ccccc3C2C1 (configuration not stated)"
  TARGET DESC: "Beta-2 adrenergic receptor (Homo sapiens) (UniProt P07550)"
  response: "-15.4% (inactive)"
- COMPOUND: "Nc1cccc2nc3ccccc3cc12"
  TARGET DESC: "Beta-2 adrenergic receptor (Homo sapiens) (UniProt P07550)"
  response: "2.19% (inactive)"
- COMPOUND: "O=c1c2ccccc2nnn1Cc1cccc2ccccc12"
  TARGET DESC: "Beta-2 adrenergic receptor (Homo sapiens) (UniProt P07550)"
  response: "-3.06% (inactive)"
- COMPOUND: "O=C(NCCN1CCOCC1)c1ccc(Cl)cc1"
  TARGET DESC: "Beta-2 adrenergic receptor (Homo sapiens) (UniProt P07550)"
  response: "15.8% (inactive)"
- COMPOUND: "O=c1ccn([C@@H]2O[C@H](CO)[C@@H](O)[C@H]2O)c(=O)[nH]1"
  TARGET DESC: "Beta-2 adrenergic receptor (Homo sapiens) (UniProt P07550)"
  response: "-22.4% (inactive)"
- COMPOUND: "COc1ccc(Cc2nc(-c3ccc(Br)cc3)no2)cc1"
  TARGET DESC: "Beta-2 adrenergic receptor (Homo sapiens) (UniProt P07550)"
  response: "-5.31% (inactive)"
- COMPOUND: "NS(=O)(=O)c1cc2c(cc1C(F)(F)F)NCNS2(=O)=O"
  TARGET DESC: "Beta-2 adrenergic receptor (Homo sapiens) (UniProt P07550)"
  response: "-9.47% (inactive)"
- COMPOUND: "Cc1oc(/C=N/NC(=O)CC2(C)OCCO2)cc1Br"
  TARGET DESC: "Beta-2 adrenergic receptor (Homo sapiens) (UniProt P07550)"
  response: "4.99% (inactive)"
- COMPOUND: "Nc1ccc2[nH]ncc2c1"
  TARGET DESC: "Beta-2 adrenergic receptor (Homo sapiens) (UniProt P07550)"
  response: "20.4% (inactive)"
- COMPOUND: "C=CCN1C(=O)c2oc3ccccc3c(=O)c2C1c1ccc(O)c(OC)c1 (configuration not stated)"
  TARGET DESC: "Beta-2 adrenergic receptor (Homo sapiens) (UniProt P07550)"
  response: "105% (active)"
- COMPOUND: "COCc1cc(=O)[nH]c(Nc2nc3ccccc3o2)n1"
  TARGET DESC: "Beta-2 adrenergic receptor (Homo sapiens) (UniProt P07550)"
  response: "-16.5% (inactive)"
- COMPOUND: "COc1cc(NC(=O)N[C@@H](Cc2ccccc2)C(=O)O)cc(OC)c1"
  TARGET DESC: "Beta-2 adrenergic receptor (Homo sapiens) (UniProt P07550)"
  response: "-10.8% (inactive)"
- COMPOUND: "CC(=O)O[C@H]1CC[C@H]2[C@@H]3CCc4cc(O)ccc4[C@H]3CC[C@]12C"
  TARGET DESC: "Beta-2 adrenergic receptor (Homo sapiens) (UniProt P07550)"
  response: "-33% (inactive)"
- COMPOUND: "CCCCC[C@H](O)/C=C/[C@@H]1[C@@H](C/C=C\\CCCC(=O)O)[C@@H](O)C[C@H]1O"
  TARGET DESC: "Beta-2 adrenergic receptor (Homo sapiens) (UniProt P07550)"
  response: "-3.9% (inactive)"
- COMPOUND: "Cc1cccc(N2C(=O)C3C(c4ccccc4)OC4(C(=O)c5ccccc5C4=O)C3C2=O)c1 (configuration not stated)"
  TARGET DESC: "Beta-2 adrenergic receptor (Homo sapiens) (UniProt P07550)"
  response: "1.5% (inactive)"
- COMPOUND: "CCCCOc1ccc(OCCCN2CCOCC2)cc1"
  TARGET DESC: "Beta-2 adrenergic receptor (Homo sapiens) (UniProt P07550)"
  response: "-8.98% (inactive)"
- COMPOUND: "CCN(CC)CCNC(=O)c1cc(S(C)(=O)=O)ccc1OC"
  TARGET DESC: "Beta-2 adrenergic receptor (Homo sapiens) (UniProt P07550)"
  response: "4.46% (inactive)"
- COMPOUND: "C=CCn1c(SCC(=O)NC2CCCCC2)nc2ccccc2c1=O"
  TARGET DESC: "Beta-2 adrenergic receptor (Homo sapiens) (UniProt P07550)"
  response: "-5.54% (inactive)"
- COMPOUND: "Cn1c2ccc(CC(=O)O)cc2c2cc(CC(=O)O)ccc21"
  TARGET DESC: "Beta-2 adrenergic receptor (Homo sapiens) (UniProt P07550)"
  response: "-8.9% (inactive)"
- COMPOUND: "CCC12CN3CC(CC)(CN(C1)C31C(=O)N(C)c3ccc(C)cc31)C2=O (configuration not stated)"
  TARGET DESC: "Beta-2 adrenergic receptor (Homo sapiens) (UniProt P07550)"
  response: "-18.8% (inactive)"
- COMPOUND: "CC(C)NC(=O)c1ccc(C(C)C)cc1"
  TARGET DESC: "Beta-2 adrenergic receptor (Homo sapiens) (UniProt P07550)"
  response: "0.9% (inactive)"
- COMPOUND: "CC(=O)[C@@]1(O)CC[C@H]2[C@@H]3CCC4=CC(=O)CC[C@]4(C)[C@H]3CC[C@@]21C"
  TARGET DESC: "Beta-2 adrenergic receptor (Homo sapiens) (UniProt P07550)"
  response: "-16.3% (inactive)"
- COMPOUND: "COC1CCCCC1Nc1ccc(C)c(C)c1 (configuration not stated)"
  TARGET DESC: "Beta-2 adrenergic receptor (Homo sapiens) (UniProt P07550)"
  response: "6.1% (inactive)"
- COMPOUND: "COc1cc(C(=O)OCCCN(C)C)cc(OC)c1OC"
  TARGET DESC: "Beta-2 adrenergic receptor (Homo sapiens) (UniProt P07550)"
  response: "-28.8% (inactive)"
- COMPOUND: "COc1ccc(/C=C2\\CCc3ccccc3C2=O)c(OC)c1OC"
  TARGET DESC: "Beta-2 adrenergic receptor (Homo sapiens) (UniProt P07550)"
  response: "-0.85% (inactive)"
- COMPOUND: "CC(C)CC(=O)N(Cc1ccc(F)cc1)C1CCS(=O)(=O)C1 (configuration not stated)"
  TARGET DESC: "Beta-2 adrenergic receptor (Homo sapiens) (UniProt P07550)"
  response: "22.9% (inactive)"
- COMPOUND: "O=c1cc(Cn2ccnc2)c2cc3c(cc2o1)CCC3"
  TARGET DESC: "Beta-2 adrenergic receptor (Homo sapiens) (UniProt P07550)"
  response: "-7.31% (inactive)"
- COMPOUND: "C#CCN(C)Cc1ccccc1"
  TARGET DESC: "Beta-2 adrenergic receptor (Homo sapiens) (UniProt P07550)"
  response: "-26.9% (inactive)"
- COMPOUND: "COc1cc(OC)c(C2C(C#N)=C(N)OC3=C2C(=O)CC(C)(C)C3)cc1OC (configuration not stated)"
  TARGET DESC: "Beta-2 adrenergic receptor (Homo sapiens) (UniProt P07550)"
  response: "10.6% (inactive)"
